# normalized RNA/DNA level without ligand (log10) values compiled below
B1: library; a variant is named by its letters at N, in order (parent)
chain: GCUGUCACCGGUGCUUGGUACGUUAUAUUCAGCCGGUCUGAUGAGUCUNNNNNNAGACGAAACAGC

Variants of: B1
Protocol notes: normalized RNA/DNA level without ligand (relative to sTRSVctl = 100) (log10 (% of sTRSVctl)); HEK293T overexpressing SLC46A1; higher = less ribozyme self-cleavage, higher mRNA level
Particulars: without (6R,S)-folinic acid; ligand present: no
Value kind: normalized RNA/DNA level without ligand (log10)

1. CCCCUA :: 2.05
2. UGAAUU :: 1.99
3. GGGAAU :: 2.01
4. CCCUCG :: 2.04
5. AAAAUA :: 1.96
6. ACAGGC :: 2.03
7. GGGGGG :: 2.04
8. UGUCUA :: 1.99
9. GGACGG :: 2.01
10. UCGAAC :: 2.03
11. CAAUCA :: 2
12. CCCGAC :: 2.04
13. CAGCUU :: 1.99
14. GCUGCA :: 2.01
15. CGAGGA :: 2.02
16. AGUUUG :: 1.96
17. UUCGCC :: 2.02
18. CGAAGA :: 1.99
19. CAUACG :: 1.99
20. UAGGCA :: 1.97
21. UUACCA :: 2.03
22. AACGUA :: 1.99
23. UGGGGC :: 2.02
24. UCUUCA :: 2.03
25. CCAUCG :: 2.01
26. CAGAGA :: 2
27. CAGCAU :: 1.96
28. UGGCAA :: 1.97
29. CUUCGA :: 2.05
30. UGAGCU :: 2
31. CACAAG :: 1.96
32. UACUUC :: 2.05
33. GUCCUG :: 2.02
34. AAAACC :: 2.03
35. UAGCAC :: 1.99
36. CCCGAG :: 1.95
37. CUUGUU :: 2.02
38. CACUGA :: 2.01
39. GACUGC :: 2
40. GCAUGA :: 2.02
41. AGUUGC :: 2
42. UCCGAC :: 2.03
43. UAUCAU :: 1.95
44. AUGACU :: 2.01
45. UCGUCG :: 2.02
46. AAGCAC :: 2.02
47. UUAAAC :: 1.98
48. UGCGAC :: 1.98
49. UCAGUA :: 1.98
50. AUCAGU :: 1.97
51. GCCAGC :: 2.01
52. GUCCAG :: 1.97
53. CCGACA :: 2.02
54. CUUAAC :: 1.99
55. GAAGUA :: 1.97
56. GCUAAU :: 1.99
57. AGGUAC :: 1.98
58. UCAUAC :: 2.03
59. CGUCGU :: 2.04
60. UUUUAA :: 1.97
61. CAAUUA :: 1.96
62. CUCCAG :: 2.03
63. AUCGCA :: 2.01
64. GUGAGU :: 1.96
65. AUAACA :: 2

Data provenance is the supplement of paper PMC6757056.
